Origin of measurements: patent CN111647076A

# system_tested: T1, SARS-Cov-1-RBD-hFc (SARS-Cov-1, UniProt P59594 306-527)
# T1 construct: domain: RBD
# method: phage ELISA, antigen coated at 5 μg/ml, anti-M13-HRP

{"columns": ["binder", "binding result"],
 "data": [
  ["4C5噬菌体 (single-domain antibody 4C5 displayed on phage) (VHH, also called 抗体4C5) VHH: EVQLLESGGGLVQPGGSLRLSCAASDFYFADYEMSWVRQAPGKGLEWIGSIYHSGSTYYNPSLKSRVTISRDNSKNTLYLQMNSLRAEDTAMYYCAREWHSGYDYWGQGTLVTVSS", "no binding"],
  ["4D5噬菌体 (single-domain antibody 4D5 displayed on phage) (VHH, also called 抗体4D5) VHH: EVQLLESGGGLVQPGGSLRLSCAASSFDFSSYEMSWVRQAPGKALEWIGEIHHSGSTYYNPSLKSRVTISRDNSKNTLYLQMNSLRAEDTAMYYCVKDLGFADHWGQGTLVTVSS", "no binding"],
  ["4A10噬菌体 (single-domain antibody 4A10 displayed on phage) (VHH, also called 抗体4A10) VHH: EVQLLESGGGLVQPGGSLRLSCAASSFDFSDYEMSWVRQAPGKGLEWIGEIHHSGSTYYNPSLKSRVTISRDNSKNTLYLQMNSLRAEDTATYYCVKDFVVGETAEFSYWGQGTLVTVSS", "no binding"],
  ["4A12噬菌体 (single-domain antibody 4A12 displayed on phage) (VHH, also called 抗体4A12) VHH: EVQLLESGGGLVQPGGSLRLSCAASDFAFSSYEMSWVRQAPGKGLEWIGEIHHSGSTYYNPSLKSLVTISRDNSKNTLYLQMNSLRAEDTAVYYCVKDFGHLGQMASWGQGTLVTVSS", "no binding"]
]}
